assayOverview: In vitro mucosal-to-serosal vancomycin transport, modified Ussing chambers, jejunum
Format: in vitro ADME, rat
measurementConditions: male, rat, pH 7.4, 25 mg/mL; HEPES buffer alone; jejunum
Where a name gives a salt, the structure may show the parent alone.
readoutType: Papp at 2.5 hr, 25 mg/mL (×10⁻⁶ cm/s)

compound: CN[C@H](CC(C)C)C(=O)N[C@H]1C(=O)N[C@@H](CC(N)=O)C(=O)N[C@H]2C(=O)N[C@H]3C(=O)N[C@H](C(=O)N[C@H](C(=O)O)c4cc(O)cc(O)c4-c4cc3ccc4O)[C@H](O)c3ccc(c(Cl)c3)Oc3cc2cc(c3O[C@@H]2O[C@H](CO)[C@@H](O)[C@H](O)[C@H]2O[C@H]2C[C@](C)(N)[C@H](O)[C@H](C)O2)Oc2ccc(cc2Cl)[C@H]1O [Vancomycin hydrochloride]
scaleUnit: ×10⁻⁶ cm/s
value: 0.54
